Tested on: UO-31
Assay: AUC of dose-response viability curve, drug alone (arbitrary (AUC of normalised viability)); higher = less growth inhibition
Conditions: treatment: drug alone; 5 days
Class boundaries, taken from values of AUC of dose-response viability curve, are as follows: A: < 3; B: ≥ 3 and < 4; C: ≥ 4

Examples from the recorded data:
INSERT INTO results (molecule, cat) VALUES
  ('CNC(=O)CN1CCC(Oc2cc3c(Nc4cccc(Cl)c4F)ncnc3cc2OC)CC1', 'B'),
  ('COc1cc(Nc2ncc(F)c(Nc3ccc4c(n3)NC(=O)C(C)(C)O4)n2)cc(OC)c1OC [R406(free base)]', 'C'),
  ('FC(F)c1nc2ccccc2n1-c1nc(N2CCOCC2)nc(N2CCOCC2)n1', 'A');

Task: Bin? COC(=O)Nc1ccc(-c2nc(N3CCOCC3)c3cnn(C4CCN(C(=O)OC)CC4)c3n2)cc1
Result: B

Task: Bin? CCn1nnc2c(N3CCOCC3)nc(-c3ccc(NC(=O)Nc4ccc(C(=O)N5CCN(C)CC5)cc4)cc3)nc21
Result: A

Task: Bin? C[C@@H]1CCN(C(=O)CC#N)C[C@@H]1N(C)c1ncnc2[nH]ccc12
Result: C

Task: Bin? COc1cc2ncnc(Nc3ccc(F)c(Cl)c3)c2cc1OCCCN1CCOCC1
Result: C

Task: Bin? CC1(COc2ccc3c(c2)ncn3-c2ccc3cccc(N4CCC(N)CC4)c3n2)COC1
Result: A

Task: Bin? O=C(Nc1cc(C(F)(F)F)cc(C(F)(F)F)c1)c1cc(Cl)ccc1O
Result: C

Task: Bin? CS(=O)(=O)CCNCc1ccc(-c2ccc3ncnc(Nc4ccc(OCc5cccc(F)c5)c(Cl)c4)c3c2)o1.Cc1ccc(S(=O)(=O)O)cc1.Cc1ccc(S(=O)(=O)O)cc1 [Lapatinib Ditosylate (Tykerb)]
Result: C

Task: Bin? CNC(=O)c1cc(Oc2ccc(NC(=O)Nc3ccc(Cl)c(C(F)(F)F)c3)c(F)c2)ccn1
Result: B

Task: Bin? CCc1cnn2c(NCc3ccc[n+]([O-])c3)cc(N3CCCC[C@H]3CCO)nc12
Result: A

Task: Bin? Cn1cc(C2=C(c3cn(C4CCN(Cc5ccccn5)CC4)c4ccccc34)C(=O)NC2=O)c2ccccc21
Result: C

Task: Bin? NC1(Cc2ccc(Cl)cc2)CCN(c2ncnc3[nH]ccc23)CC1
Result: C

Task: Bin? COc1cc2ncnc(Nc3ccc(F)c(Cl)c3)c2cc1NC(=O)/C=C/CN1CCCCC1
Result: A

Task: Bin? O=c1[nH]c2ccc(Cl)cc2c(N[C@@H]2CN3CCC2CC3)c1-c1nc2ccccc2[nH]1
Result: A

Task: Bin? CNC(=O)c1ccccc1Sc1ccc2c(/C=C/c3ccccn3)n[nH]c2c1
Result: C

Task: Bin? COc1cc(Nc2c(C#N)cnc3cc(OCCCN4CCN(C)CC4)c(OC)cc23)c(Cl)cc1Cl [Bosutinib (SKI-606)]
Result: A

Task: Bin? Cc1cc2c(C(C)C)c(O)c(O)c(C=O)c2c(O)c1-c1c(C)cc2c(C(C)C)c(O)c(O)c(C=O)c2c1O
Result: B

Task: Bin? COc1cc(Nc2ncc3c(n2)-c2ccc(Cl)cc2C(c2c(F)cccc2OC)=NC3)ccc1C(=O)O
Result: B

Task: Bin? COc1ccc(-c2ccc3ncc4c(c3c2)n(-c2ccc(N3CCNCC3)c(C(F)(F)F)c2)c(=O)n4C)cn1.O=C(O)/C=C\C(=O)O
Result: A

Task: Bin? CC(=O)NCC(=O)N1[C@H]2CC[C@H]1c1cc(Nc3ncc(C(F)(F)F)c(NC4CCC4)n3)ccc12
Result: A

Task: Bin? Cc1cc(Nc2nc(N[C@@H](C)c3ccc(F)cc3)c(C#N)cc2F)n[nH]1
Result: A

----------
This section presents compounds with their documented AUC of dose-response viability curve values.
Tested on: 769-P
Assay: AUC of dose-response viability curve, drug + dasatinib, normalised to DMSO (arbitrary (AUC of normalised viability)); higher = less growth inhibition
Settings: treatment: drug + dasatinib (fixed dose, not stated); 5 days

INSERT INTO results (compound, measurement_name, result) VALUES
  ('OCc1ccc(-c2ccc(-c3ccc(CO)s3)o2)s1 + Cc1nc(Nc2ncc(C(=O)Nc3c(C)cccc3Cl)s2)cc(N2CCN(CCO)CC2)n1', 'AUC of dose-response viability curve', 0.925);

Tested system 769-P; AUC of dose-response viability curve recorded for CN1CCN(c2nc(C3=C(c4c[nH]c5ccccc45)C(=O)NC3=O)c3ccccc3n2)CC1 [Sotrastaurin (AEB071)] + Cc1nc(Nc2ncc(C(=O)Nc3c(C)cccc3Cl)s2)cc(N2CCN(CCO)CC2)n1 was 2.3

----------
Test system: 769-P
Assay: AUC of dose-response viability curve, drug alone (arbitrary (AUC of normalised viability)); higher = less growth inhibition
Conditions: treatment: drug alone; 5 days
measurement_name: AUC of dose-response viability curve
Reply with just the number.

For orientation, consider the following solved cases.
INSERT INTO results (compound, quantitative_result) VALUES
  ('Cn1c(=O)n(-c2ccc(C(C)(C)C#N)cc2)c2c3cc(-c4cnc5ccccc5c4)ccc3ncc21', 2.02),
  ('O=C(Nc1c[nH]nc1-c1nc2cc(CN3CCOCC3)ccc2[nH]1)NC1CC1', 1.97),
  ('CN(C)C/C=C/C(=O)Nc1cc2c(Nc3ccc(F)c(Cl)c3)ncnc2cc1O[C@H]1CCOC1', 1.94),
  ('COc1cc(Nc2ncc(F)c(Nc3ccc4c(n3)NC(=O)C(C)(C)O4)n2)cc(OC)c1OC [R406(free base)]', 3.13),
  ('CS(=O)(=O)O.Cc1ccc(NC(=O)c2ccc(CN3CCN(C)CC3)cc2)cc1Nc1nccc(-c2cccnc2)n1 [Imatinib Mesylate]', 3.45);

AUC of dose-response viability curve reported for this compound Cc1cc(C(C)Nc2ccccc2)c2nc(N3CCOCC3)cc(=O)n2c1 (stereo unspecified) : 3.18

----------
This section presents molecules with their documented minimum viability across doses values.
Tested on: SN12C
Assay: minimum viability across doses, drug alone, relative to DMSO (fraction); higher = less growth inhibition
Details: treatment: drug alone; 5 days

For orientation, consider the following solved cases.
INSERT INTO measurements (molecule, measurement_name, result) VALUES
  ('C[C@@H]1CN(CC(=O)Nc2ccc3c(c2)Cc2cccc(-c4cc(=O)cc(N5CCOCC5)o4)c2S3)C[C@H](C)O1', 'minimum viability across doses', 0.646),
  ('CS(=O)(=O)O.Cc1ccc(NC(=O)c2ccc(CN3CCN(C)CC3)cc2)cc1Nc1nccc(-c2cccnc2)n1 [Imatinib Mesylate]', 'minimum viability across doses', 0.775),
  ('Nc1cccc2c1C(=O)N(C1CCC(=O)NC1=O)C2=O (centres undefined) [Pomalidomide]', 'minimum viability across doses', 0.884),
  ('C=CC(=O)Nc1ccc2ncnc(Nc3ccc(OCc4cccc(F)c4)c(Cl)c3)c2c1.Cc1ccc(S(=O)(=O)O)cc1 [AST-1306]', 'minimum viability across doses', 0.188),
  ('CC(=O)NCC(=O)N1[C@H]2CC[C@H]1c1cc(Nc3ncc(C(F)(F)F)c(NC4CCC4)n3)ccc12', 'minimum viability across doses', 0.0115),
  ('Cc1n[nH]c2ccc(-c3cncc(OC[C@@H](N)Cc4ccccc4)c3)cc12', 'minimum viability across doses', 0.00861),
  ('Cc1ccc(NC(=O)c2ccc(CN3CCN(C)CC3)cc2)cc1Nc1nc(-c2cccnc2)cs1 [Masitinib (AB1010)]', 'minimum viability across doses', 0.292),
  ('CN1CCN(c2ccc([N+](=O)[O-])c3no[n+]([O-])c23)CC1', 'minimum viability across doses', 0.832);

minimum viability across doses reported for this molecule CCn1cc(-c2ccnc3[nH]c(-c4cccc(CN(C)C)c4)cc23)c(-c2ccc(NC(=O)N(C)C)cc2)n1 : 0.0272

minimum viability across doses reported for this molecule CCCCOc1c(C(=O)c2c(F)cc(C)cc2F)cnc2[nH]ncc12 : 0.564

minimum viability across doses reported for this molecule Nc1nccc(Oc2ccc(NC(=O)c3c[nH]cc(-c4ccc(F)cc4)c3=O)cc2F)c1Cl : 0.711

minimum viability across doses reported for this molecule O=C1NC(=O)/C(=C/c2ccc3c(c2)OC(F)(F)O3)S1 : 0.775

minimum viability across doses reported for this molecule C=CC(=O)Nc1cc2c(Nc3ccc(F)c(Cl)c3)ncnc2cc1OCCCN1CCOCC1 [CI-1033 (Canertinib)] : 0.104

----------
This section presents molecules with their documented AUC of dose-response viability curve values.
Tested on: SN12C
Assay: AUC of dose-response viability curve, drug alone (arbitrary (AUC of normalised viability)); higher = less growth inhibition
Conditions: treatment: drug alone; 5 days
Reply with just the number.

INSERT INTO results (molecule, quantitative_result) VALUES
  ('O=C1NC(=O)/C(=C/c2ccc(-c3ccc(F)cc3O)o2)S1', 3.48),
  ('CN(C)c1ccc(-c2nc3c(N4CCN(CC(=O)Nc5nccs5)CC4)c(Cl)cnc3[nH]2)cc1', 2.76),
  ('CC(C)n1nc(-c2ccc3oc(N)nc3c2)c2c(N)ncnc21 [INK 128]', 1.27);

AUC of dose-response viability curve reported for this molecule Cc1c(CN2CCN(C(=O)[C@H](C)O)CC2)sc2c(N3CCOCC3)nc(-c3cnc(N)nc3)nc12 [GDC-0980 (RG7422)] : 2.07

Data credit: the supplement of paper PMC8149375
